molecular target: Mitogen-activated protein kinase 1 (Homo sapiens, UniProt P28482); experiment: DRUGMATRIX: Protein Serine/Threonine Kinase, ERK2 enzyme inhibition (substrate: Myelin Basic Protein); parameters: species or system Escherichia coli; settings: Not Active = under 50% inhibition at 10 µM; read-out: IC50
Sequence (P28482 whole entry): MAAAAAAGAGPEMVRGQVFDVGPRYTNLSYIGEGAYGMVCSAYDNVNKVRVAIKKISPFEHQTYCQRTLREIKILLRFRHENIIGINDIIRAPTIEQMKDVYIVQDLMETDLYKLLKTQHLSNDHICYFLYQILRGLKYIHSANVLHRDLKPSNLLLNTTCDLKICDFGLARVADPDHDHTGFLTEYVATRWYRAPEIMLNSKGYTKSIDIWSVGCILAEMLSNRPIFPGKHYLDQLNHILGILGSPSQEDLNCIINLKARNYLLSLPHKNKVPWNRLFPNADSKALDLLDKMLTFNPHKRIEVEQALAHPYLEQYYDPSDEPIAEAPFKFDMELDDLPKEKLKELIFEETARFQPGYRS
measuredEndpoint: IC50 (nM)
State just the number; it will be interpreted in nM.

## Input Fill in reported IC50 for this entry: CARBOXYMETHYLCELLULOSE
## Output 216

###

test: DRUGMATRIX: Tumor Necrosis Factor (TNF), Non-Selective radioligand binding (ligand: [125I] TNF-alpha); format: cell membranes, Membrane; details: u-937; Not Active = under 50% inhibition at 10 µM
measuredEndpoint: IC50

Some molecules with known IC50 results, for comparison:
- molecule: "CO[C@H]1O[C@@H]2O[C@@]3(C)CC[C@H]4[C@H](C)CC[C@@H]([C@H]1C)[C@@]24OO3"
  measured: "Not Active"
- molecule: "Cc1ccc(S(=O)(=O)NC(=O)NN2CCCCCC2)cc1 [TOLAZAMIDE]"
  measured: "Not Active"
- molecule: "CCOc1cc(N)c(Cl)cc1C(=O)NCC1CN(Cc2ccc(F)cc2)CCO1 (stereo not given) [MOSAPRIDE]"
  measured: "Not Active"
- molecule: "OC[C@H]1OC2C3[C@@H](CO)OC(O[C@H]4[C@H](O)[C@@H](O)[C@@H](O[C@H]5[C@H](O)[C@@H](O)[C@@H](O[C@H]6[C@H](O)[C@@H](O)[C@@H](O[C@H]7[C@H](O)[C@@H](O)[C@@H](O[C@H]8[C@H](O)[C@@H](O)[C@@H](O[C@H]9[C@H](O)[C@@H](O)C(OC1[C@H](O)[C@H]2O)O[C@@H]9CO)O[C@@H]8CO)O[C@@H]7CO)O[C@@H]6CO)O[C@@H]5CO)O[C@@H]4CO)[C@H](O)[C@H]3O"
  measured: "Not Active"
- molecule: "O=C1CC[C@@]2(O)[C@H]3Cc4ccc(O)c5c4[C@@]2(CCN3CC2CC2)[C@H]1O5 [NALTREXONE]"
  measured: "Not Active"

Okay, now this molecule:
## Input Fill in reported IC50 for this entry: C[C@]12CCC(=O)C[C@@H]1CC[C@@H]1[C@@H]2CC[C@]2(C)[C@@H](O)CC[C@@H]12
## Output Not Active

###

assay: DRUGMATRIX: Interleukin IL-1 radioligand binding (ligand: [125I] interleukin 1beta); assay type: cell membranes, Membrane; details: nih3t3; Not Active = under 50% inhibition at 10 µM
measuredEndpoint: IC50

- compound: "NCC(CC(=O)O)c1ccc(Cl)cc1 (configuration not stated)"
  IC50: "Not Active"
- compound: "CCN1C[C@]2(COC)[C@H](O)C[C@H](OC)[C@@]34[C@@H]5C[C@@]6(O)[C@H](OC(=O)c7ccccc7)[C@@H]5[C@@](OC(C)=O)([C@@H]([C@H](OC)[C@H]23)[C@@H]14)[C@@H](O)[C@@H]6OC"
  IC50: "Not Active"
- compound: "CN1C[C@H](CNC(=O)OCc2ccccc2)C[C@@H]2c3cccc4c3c(cn4C)C[C@H]21"
  IC50: "Not Active"
- compound: "COc1ccc(Cl)cc1C(=O)NCCc1ccc(S(=O)(=O)NC(=O)NC2CCCCC2)cc1 [GLYBURIDE]"
  IC50: "Not Active"
- compound: "Nc1ccc(C(=O)O)c(O)c1"
  IC50: "Not Active"
- compound: "O=c1[nH]c2ccccc2c2ccccc12"
  IC50: "Not Active"
- compound: "CC(=O)[C@]1(O)Cc2c(O)c3c(c(O)c2[C@@H](O[C@H]2C[C@H](N)[C@H](O)[C@H](C)O2)C1)C(=O)c1ccccc1C3=O"
  IC50: "Not Active"
- compound: "COC(=O)Nc1nc2ccc(Sc3ccccc3)cc2[nH]1"
  IC50: "Not Active"
- compound: "CC(C)NCC(O)COc1ccc(CC(N)=O)cc1 (configuration not stated)"
  IC50: "Not Active"
- compound: "C[N+]1(C)[C@@H]2C[C@@H](OC(=O)[C@H](CO)c3ccccc3)C[C@H]1[C@@H]1O[C@@H]12.[Br-] [METHSCOPOLAMINE BROMIDE]"
  IC50: "Not Active"

## Input Fill in reported IC50 for this entry: O=C(O)c1ccccc1
## Output Not Active

## Input Fill in reported IC50 for this entry: CC12CCC(CC1)C(C)(C)O2
## Output Not Active

## Input Fill in reported IC50 for this entry: CC(CN1c2ccccc2Sc2ccccc21)N(C)C (configuration not stated)
## Output Not Active

## Input Fill in reported IC50 for this entry: O=C(O)CCc1nc(-c2ccccc2)c(-c2ccccc2)o1
## Output Not Active

## Input Fill in reported IC50 for this entry: CC(C)(c1ccc(O)cc1)c1ccc(O)cc1
## Output Not Active

## Input Fill in reported IC50 for this entry: CC(=O)O[C@]1(C(C)=O)CC[C@H]2[C@@H]3C[C@H](C)C4=CC(=O)CC[C@]4(C)[C@H]3CC[C@@]21C [MEDROXYPROGESTERONE ACETATE]
## Output Not Active

## Input Fill in reported IC50 for this entry: CO[C@@]12[C@H](COC(N)=O)C3=C(C(=O)C(C)=C(N)C3=O)N1C[C@@H]1N[C@@H]12
## Output Not Active
